# Assay Notes: Intrinsic clearance (CLint) assay, human liver microsomes
# Type: in vitro ADME
# Test Conditions: predicted metabolic clearance
Non-standard residues stand in square brackets, D forms with d. Residues, ends and D or L forms follow the SMILES beside them. dOrn = NCCC[C@@H](N)C(=O)O

Compound: CC[C@H](C)[C@@H]1NC(=O)[C@H]([C@@H](C)CC)NC(=O)[C@@H](CC(C)C)NC(=O)[C@H](CC(C)C)NC(=O)[C@H](Cc2c[nH]c3ccccc23)NC(=O)[C@@H](CCCN)NC1=O [Compound 12c] (cyclo(II[dOrn]WL[dL]))
Readout Units: mL/min/kg
CLpred Human: 16.02
//
Compound: CSCC[C@@H]1NC(=O)[C@@H](CC(C)C)NC(=O)[C@H](CC(C)C)NC(=O)[C@H](Cc2c[nH]c3ccccc23)NC(=O)[C@@H](CCCN)NC(=O)[C@H](CC(N)=O)NC1=O [Compound 8c] (cyclo(L[dL]MN[dOrn]W))
Readout Units: mL/min/kg
CLpred Human: 12.76
